Molecular target: T1, human claudin 18.2 (hCLDN18.2) (human)
T1 construct: also called CLDN18 splice variant 2; HEK293-hCLDN18.2
Assay: flow cytometry (direct FACS binding, equilibrium at 4 C) on HEK293-hCLDN18.2 cells
What Kd was measured for each of the following?
Numbers only, in nM.

Below, each entry is followed by its recorded Kd result.
binder: 163E12 human-mouse chimeric positive control antibody (antibody, V domains shown, Self-made, expressed in CHOS cells, Protein A purified; also called Benchmarker; Benchmark) VH: QIQLVQSGPELKKPGETVKISCKASGYTFTNYGMNWVKQAPGKGLKWMGWINTNTGEPTYAEEFKGRFAFSLETSASTAYLQINNLKNEDTATYFCARLGFGNAMDYWGQGTSVTVSS VL: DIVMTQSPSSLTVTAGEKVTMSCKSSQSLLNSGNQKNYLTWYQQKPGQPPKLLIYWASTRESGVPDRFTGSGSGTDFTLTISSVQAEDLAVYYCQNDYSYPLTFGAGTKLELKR
unitsOfMeasure: nM
Kd: 0.137
//
binder: 5-M9 human-mouse chimeric monoclonal antibody (antibody, human IgG1, V domains shown, Mouse V regions fused to human IgG1 (G1m17) heavy chain constant region and human kappa light chain constant region; also called 5-M9-A; Chi 5-M9) VH: QVQLKESGPVLVAPSQSLSITCTVSGFSLTTYGVQWVRQPPGKGLEWLGAIWAGGNTNYNSALMSRLSISKDNSKSQVFLKMNSLQTDDTAIYYCAKGGYGNAMDYWGQGTSVTVAS VL: DIVMTQSPSSLTVTAGERVTMSCKSSQSLLNSGNQKNYLTWYQQKSGQPPKLLIYWASTRESGVPDRFTGSGSGTDFTLTISSVQAEDLAVYYCQNDYFFPFTFGSGTKLEIK
unitsOfMeasure: nM
Kd: 0.048
//
binder: 175D10 human-mouse chimeric positive control antibody (antibody, V domains shown, Self-made, expressed in CHOS cells, Protein A purified; also called Benchmark) VH: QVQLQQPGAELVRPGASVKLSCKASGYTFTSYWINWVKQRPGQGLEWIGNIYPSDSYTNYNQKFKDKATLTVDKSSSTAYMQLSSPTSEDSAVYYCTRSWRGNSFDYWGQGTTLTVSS VL: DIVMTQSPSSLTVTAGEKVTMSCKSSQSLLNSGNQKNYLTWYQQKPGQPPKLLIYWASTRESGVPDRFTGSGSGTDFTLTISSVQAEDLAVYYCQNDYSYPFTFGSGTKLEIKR
unitsOfMeasure: nM
Kd: 0.189

Here's the next entry for you.
Input 9-D1 human-mouse chimeric monoclonal antibody (antibody, human IgG1, V domains shown, Mouse V regions fused to human IgG1 (G1m17) heavy chain constant region and human kappa light chain constant region; also called 9-D1-A) VH: EIQLQQSGAELVKPGASVKISCKASGYSFTDYHMNWVRQSHGKSLEWIGNIDPYYGSPTYNHKFKGKATLTVDKSSSTAYMQLISLTSEDSAVYYCANYGRGNSFPYWGQGTLVTVSA VL: DIVMTQSPSSLTVTAGEKVTMSCKSSQSLLNSGNQRNYLTWYQQKPGQPPKLLLYWASTRESGVPDRFTGSGSGTDFTLTISSVQAEDLAVYYCQNDYSFPFTFGSGTKLEIK . Output Kd: 0.049
